Test system: MS2 coat protein
Assay: apparent KD of MS2 coat protein; higher = weaker reporter binding
Conditions: Eterna round: R107; input ligand: theophylline 20 uM
apparent KD of MS2 coat protein values for the sequences below.

Request: Provide only the value of recorded apparent KD of MS2 coat protein for GAUGAUAUUGCAGAUACCAGACACAUGAGGAUCACCCAUGUCGCUGGGUUACUGGAUCGUGUCCCUUGGCAGCUGCGAUAUCAUC [Austria]
Response: 379 nM

Request: Provide only the value of recorded apparent KD of MS2 coat protein for CUGCCAUGCAGAGAUACCAGUGAGCUCAGAACAUGAGGAUCACCCAUGUACGCCGCCGAUCACCCUUGGCAGCUCUGCAUGGCAG [%*#)(]
Response: 14.1 nM

Request: Provide only the value of recorded apparent KD of MS2 coat protein for AAAACAAUCUGAAGGAGCGUCACAUGAGGAUCACCCAUGUACAUGAGGAUCACCCAUGUGUGACAGGUAGGUCGCAGAAAAUACC [Exclusion Arginine B GF 3]
Response: 183 nM

* * *

apparent KD of MS2 coat protein values for the sequences below.
Test system: MS2 coat protein
Experiment: apparent KD of MS2 coat protein; designed switch direction (-1 OFF switch, 1 ON switch): -1; higher = weaker reporter binding
Details: input ligand: FMN 200 uM
Please respond with the number in µM and leave the unit unwritten.

Here's what some known entries look like.
CUAGCGAGUGUAGGAUAUCGGACUGUUUCAGUCUGAGAAGGACAUGAGGAUCACCCAUGUAUUGCUGCGUGAGUAGCACGCUAG [JL ENG1 3.99] (Eterna round: R96, puzzle: Exclusion NG 1)	0.0324
UACAUGAGGAUCACCCAUGUUUUGUCGUGUAUGGUAAUAAUCUAGGAUAUCAAUUUAUUUAUUUAUGAGAAGGAGAAUAAUAAA [JMF's solution 4] (Eterna round: R96, puzzle: Exclusion NG 3)	0.0671
GAUCAUGCAGGAUAUGCAGUAACCAUGAAAACAUGGUUGCAACAUGAGGAUCACCCAUGUAGAAGGGCAUGAUC [Omei Ex2 A3] (Eterna round: R97, puzzle: Exclusion 2)	0.0108

Request: Provide only the value of recorded apparent KD of MS2 coat protein for UUCCUCACUUCUUUGUCUCACAUGAGGAUCACCCAUGUAAUAUAGGAUAUGCUUAGUAUUUCUAUGCAGAAGGAUAUUAGUUUU [JR_ExcNG3_Sub086] (Eterna round: R96, puzzle: Exclusion NG 3)
Response: 0.111

Request: Provide only the value of recorded apparent KD of MS2 coat protein for UCGCGAAGAGGAUAUACAUAGAAAUAGAUUCAUGUAAAACUACAUGAGGAUCACCCAUGUAGAAGGCUUUGCGU [Mat - Exclusion 2 - JL Mod - D60] (Eterna round: R97, puzzle: Exclusion 2)
Response: 0.108

Request: Provide only the value of recorded apparent KD of MS2 coat protein for AUGUCGGCAGGAUAUACAUGAGGAUCACCCAUGUAAAUUUUUCGUUUAACUUGAAUGUGUAGAAGGGCCAUGAA [Ex3 #68] (Eterna round: R97, puzzle: Exclusion 3)
Response: 0.0309

Request: Provide only the value of recorded apparent KD of MS2 coat protein for GUGAGCAGACGGAGAUCCUACAUGAGGAUCACCCAUGUCUCACUAGCUUUUUGCUCGUCUUAUCCUCCUCUGUUCAC [Elimod 24 - Jieux - Sensor, turn-off variant 1] (Eterna round: R97, puzzle: Sensor, turn-off variant 1)
Response: 0.0218

Request: Provide only the value of recorded apparent KD of MS2 coat protein for ACAUGAGGAUCACCCAUGUCCGUCUGGUCUGUCUCGGCUGUCGAGGAUAUAGCUCGGUAUCCGCGCUAGAAGGCGGGAGUCGGA [Aenatbe mod 94] (Eterna round: R96, puzzle: Exclusion NG 3)
Response: 0.0243

Request: Provide only the value of recorded apparent KD of MS2 coat protein for ACAUGAGGAUCACCCAUGUCAACGAAAAGGCUCAUGUAGAGUGAGGAUAUGUGAGACGAACGAGAACAGAAGGCACAAGACAGG [Deportation 3 - Jieux - Exclusion NG 3] (Eterna round: R96, puzzle: Exclusion NG 3)
Response: 0.0318

Request: Provide only the value of recorded apparent KD of MS2 coat protein for UGUCUCCUCGUCAGGAUAUUUCGUUGUGCAGACUGAAAGAAGGGACAUGAGGAUCACCCAUGUACCUCGUCGGU [Eternabot (L2) Solution 98] (Eterna round: R97, puzzle: Brourd's mod of Exclusion 4)
Response: 0.0223

Request: Provide only the value of recorded apparent KD of MS2 coat protein for UUUAAUUUAAUUAAGAUCACAUGAGGAUCACCCAUGUAUAUAUAGGAUAUCAGCUCGUGUAGAGCUGAGAAGGAUAUAUACAUA [ExNG3/4-A3] (Eterna round: R96, puzzle: Exclusion NG 3)
Response: 0.046

Request: Provide only the value of recorded apparent KD of MS2 coat protein for AGUAGGAGAGGAUAUACAUGAAGUCGAAAGACUUCGACUCAACAUGAGGAUCACCCAUGUAGAAGGCUCCUACA [Omei Ex2 BD A7] (Eterna round: R97, puzzle: Exclusion 2)
Response: 0.126

Request: Provide only the value of recorded apparent KD of MS2 coat protein for AUUUAGUCAGGAUAUACAUGAGGAUCACCCAUGUAAACUUUUAGUUUAAUUUGAAUGUGUAGAAGGGACAUUUA [Ex3 #46] (Eterna round: R97, puzzle: Exclusion 3)
Response: 0.026

Request: Provide only the value of recorded apparent KD of MS2 coat protein for AGCAGACGAGGAUAUAAAUUUGAUAACAUGAGGAUCACCCAUGUGAUCGAUAGAUCAAAUUUAGAAGGUGUCUGCU [E5/7-B1] (Eterna round: R97, puzzle: Exclusion 5)
Response: 0.512

Request: Provide only the value of recorded apparent KD of MS2 coat protein for GUAGGUUAAGUAAGGAUAUACCUCUGGAAACAGAGGUAGAAGGUACAUGAGGAUCACCCAUGUUUCUCUUUUGC [Mod of Eli 6 - Jieux - Brourd's mod of Exclusion 4] (Eterna round: R97, puzzle: Brourd's mod of Exclusion 4)
Response: 0.0218

Request: Provide only the value of recorded apparent KD of MS2 coat protein for AAUUAAGCAAGCAGAUCCCACAUGAGGAUCACCCAUGUGCUCGUCUUAUAAGGUACUGUGACGAGAGUCACGGUACC [Mat - Sensor, turn-off var - Eli Mod - D70] (Eterna round: R97, puzzle: Sensor, turn-off variant 1)
Response: 0.128

Request: Provide only the value of recorded apparent KD of MS2 coat protein for ACAGCUAUAGGAUAUACAGCGAGGAAACUUAGUGGGAUCGGACAUGAGGAUCACCCAUGUAGAAGGAUAGACGG [Eternabot (L2) Solution 85] (Eterna round: R97, puzzle: Exclusion 2)
Response: 0.149

Request: Provide only the value of recorded apparent KD of MS2 coat protein for CCUUAGUUAGGAUAUCGGAUUGUUCACGGUGCUCACCGGGUCGAGAAGGAACAUGAGGAUCACCCAUGUCACGA [Eternabot (L1) Solution 72] (Eterna round: R97, puzzle: Exclusion 4)
Response: 0.0601

* * *

System: MS2 coat protein
Experiment: apparent KD of MS2 coat protein; designed switch direction (-1 OFF switch, 1 ON switch): -1; higher = weaker reporter binding
Conditions: Eterna round: R95; input ligand: FMN 200 uM
Decision: apparent KD of MS2 coat protein >= 30 nM yields criterion met, all other cases yield criterion not met.

Would you please look over these solved cases?
UAUCGGCGGACCGAGGCUUUUUGCUCGUCUUAUGCUAUGACAUGAGGAUCACCCAUGUGGUGGUGGUCCGUUGUAGU [JL ViennaUCT Bitein mod 10] (puzzle: Sensor v3, turn-off variant 2)	criterion met
CCGAGGUAGCGGUCCUAUGACAUGAGGAUCACCCAUGUACCUCGCUACGAGCUUUUUGCUCGUCUUAAAAUUCUCGG [Mat - Sensor v3 - turn-off var 1 - JL Mod - D29] (puzzle: Sensor v3, turn-off variant 1)	criterion met
AAAGAAGAGAGAAAAUAACACAUGAGGAUCACCCAUGUGAGAAGUUGAGGGUGAUACAGGCUUUAUGCUCGUCUUAU (puzzle: Sensor v3, turn-off variant 1)	criterion met
AAACGUGCGAAGGAUAUCCAUCCACCCUGGAAAGGAGAAGGUCGCACAUGAGGAUCACCCAUGUGUGCCUAAAA [Zalave] (puzzle: Exclusion 6)	criterion not met

Request: Hi, just wondering whether UUUUAGAGAGGAUAUAUUAUGUGAAACAUGAGGAUCACCCAUGUAAUAUAAUGGAUGUAAAUAGAAGGCUCAUUUA [Mat - Exclusion 5 - JL mod - D22] (puzzle: Exclusion 5) shows apparent KD of MS2 coat protein of 30 nM or higher.
Response: criterion not met

* * *

Tested on: MS2 coat protein
Experiment: apparent KD of MS2 coat protein, switch OFF state (with FMN for OFF switches, without FMN for ON switches); designed switch direction (-1 OFF switch, 1 ON switch): -1; higher = weaker reporter binding
Details: FMN input: 0 or 200 uM; Eterna round: R93 (includes R88 designs)
I'd appreciate it if you could label each record using apparent KD of MS2 coat protein and these ranges: low bracket (below 40 nM), middle bracket (40 nM to below 70 nM), high bracket (70 nM or more)

AGCUAGUGAGGAUAUACAAGAAUAUAAACAAAAAUGAAGGGACAUGAGGAUCACCCAUGUAGAAGGCACUAGCA [Diamond 72]	high bracket
CUCUUGUGAGGAUAUAGAAGAAAAGAAAAGAAAGAAAAGAACUAGAAGGCACAUGAGGAUCACCCAUGUAAGAA [EteRNA is fun!]	middle bracket
AAAAAGAGAGGAUAUACAUGAGGAUCACCCAUGUGACAUUAAAUAAAUAAAAUAAAGUGUAGAAGGCUCAAAAA [65%, Moding Exclusion3-cac2, 23]	high bracket
AAGUUAUUAGGAUAUACUUGUGCGAUCCAUACGUUGAUAUUACAUGAGGAUCACCCAUGUAGAAGGAAUAAAAA [JR_Exc002_Sub414]	middle bracket
AAAAAACAUGAGGAUCACCCAUGUGAGGAUAUCCUAAAAAAAAAAAAAAAAAAAAAAAGGAGAAGGCACAUAAA [EXCLS-II]	middle bracket

Next sequence, please.
Request: State the band of AACAUGUCAGGAUAUUUAAGAAAAGAAAAGAAAGAAAAGAAAAAGAAGGGACAUGAGGAUCACCCAUGUAAGAA [EteRNA is fun!]
Response: middle bracket

Cited source for all entries: the supplement of paper PMC9170038
